experiment: Stability assay in 25% TIDE 2X detergent without DTPA (residual Abz-AGLA-Nba protease activity); format: physicochemical; settings: 180 min at 50°C; variant residual AGLA activity divided by wild-type residual activity
metric name: PI (relative stability), 25% TIDE 2X without DTPA
Give your answer as a number; write no unit.

Q128I: single-substitution thermolysin variant (SEQ ID NO:3 numbering) (protein, listed as Geobacillus caldoproteolyticus) ITGTSTVGVGRGVLGDQKNINTTYSTYYYLQDNTRGNGIFTYDAKYRTTLPGSLWADADNQFFASYDAPAVDAHYYAGVTYDYYKNVHNRLSYDGNNAAIRSSVHYSQGYNNAFWNGSQMVYGDGDGITFIPLSGGIDVVAHELTHAVTDYTAGLIYQNESGAINEAISDIFGTLVEFYANKNPDWEIGEDVYTPGISGDSLRSMSDPAKYGDPDHYSKRYTGTQDNGGVHINSGIINKAAYLISQGGTHYGVSVVGIGRDKLGKIFYRALTQYLTPTSNFSQLRAAAVQSATDLYGSTSQEVASVKQAFDAVGVK: 1.19

Next up:
Consider the molecule shown here: Y151N: single-substitution thermolysin variant (SEQ ID NO:3 numbering) (protein, listed as Geobacillus caldoproteolyticus) ITGTSTVGVGRGVLGDQKNINTTYSTYYYLQDNTRGNGIFTYDAKYRTTLPGSLWADADNQFFASYDAPAVDAHYYAGVTYDYYKNVHNRLSYDGNNAAIRSSVHYSQGYNNAFWNGSQMVYGDGDGQTFIPLSGGIDVVAHELTHAVTDNTAGLIYQNESGAINEAISDIFGTLVEFYANKNPDWEIGEDVYTPGISGDSLRSMSDPAKYGDPDHYSKRYTGTQDNGGVHINSGIINKAAYLISQGGTHYGVSVVGIGRDKLGKIFYRALTQYLTPTSNFSQLRAAAVQSATDLYGSTSQEVASVKQAFDAVGVK What is its recorded PI (relative stability), 25% TIDE 2X without DTPA?
1.05
